# Tested on: HL-60 cell line
# measurement.protocol: HL-60 cell migration assay, antagonist mode (SAA-stimulated chemotaxis)
# Assay type: cell-based
# assay.context: Homo sapiens; HL-60 cells; read-out: IC50, antagonism of chemotaxis stimulated by SAA
pIC50: −log10 of the molar value.
measured.attribute: pIC50

molecular_string=COc1cc(F)c([C@@H]2CNC(=O)[C@H]2NC(=O)Nc2ccccc2)c(F)c1 experimental_result=7.24

* * *

# tested.target: Human FPR2 (Homo sapiens, UniProt P25090)
# Sequence (P25090 whole entry): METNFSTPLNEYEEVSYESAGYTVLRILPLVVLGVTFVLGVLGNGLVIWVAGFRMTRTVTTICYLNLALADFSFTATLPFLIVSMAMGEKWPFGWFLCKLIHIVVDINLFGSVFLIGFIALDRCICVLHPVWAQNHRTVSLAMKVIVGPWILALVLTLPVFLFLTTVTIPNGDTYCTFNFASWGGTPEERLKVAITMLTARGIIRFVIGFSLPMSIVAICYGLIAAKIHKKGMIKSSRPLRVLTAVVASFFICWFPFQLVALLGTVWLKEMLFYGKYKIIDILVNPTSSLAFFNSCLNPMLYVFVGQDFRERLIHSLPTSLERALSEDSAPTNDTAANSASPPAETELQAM
# measurement.protocol: FPR2 cAMP assay (cAMP inhibition)
# assay.context: Human FPR2/CHO-A12
pEC50: −log10 of the molar value.
measured.attribute: pEC50

molecule="COc1cc(F)c([C@@H]2CNC(=O)[C@H]2NC(=O)Nc2ccccc2)c(F)c1 [Compound 1]" experimental_result=8.55

* * *

# tested.target: Human FPR1 (Homo sapiens)
# Sequence (P21462 whole entry): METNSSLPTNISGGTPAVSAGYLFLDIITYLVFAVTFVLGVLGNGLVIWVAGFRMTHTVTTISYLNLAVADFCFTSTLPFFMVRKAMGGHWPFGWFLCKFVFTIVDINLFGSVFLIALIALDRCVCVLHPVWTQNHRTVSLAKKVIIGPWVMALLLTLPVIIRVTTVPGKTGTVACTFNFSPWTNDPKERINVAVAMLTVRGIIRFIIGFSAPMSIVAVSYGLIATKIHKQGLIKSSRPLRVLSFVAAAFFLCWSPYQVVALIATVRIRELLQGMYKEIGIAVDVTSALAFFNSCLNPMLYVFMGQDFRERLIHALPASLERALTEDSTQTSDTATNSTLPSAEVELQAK
# measurement.protocol: FPR1 cAMP assay (cAMP inhibition)
# assay.context: Human FPR1/CHO-A12
measured.attribute: EC50

molecular_string=COc1cc(F)c([C@@H]2CNC(=O)[C@H]2NC(=O)Nc2ccccc2)c(F)c1 tested_target="Human FPR1 (Homo sapiens)" experimental_result="1.25 µM"

Origin of measurements: patent US20200069644A1
